B1: TPR t1 (parent)
chain: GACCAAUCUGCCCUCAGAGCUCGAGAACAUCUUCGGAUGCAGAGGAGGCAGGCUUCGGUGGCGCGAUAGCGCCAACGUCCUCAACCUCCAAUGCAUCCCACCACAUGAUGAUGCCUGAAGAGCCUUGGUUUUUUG

- Variants of: B1
- experiment-summary: polymerase ribozyme fitness, log enrichment relative to wild type (log ratio); higher = more active; in vitro selection for triplet polymerase activity

mutation-name: A50U C79G G110A G122C
polymerase ribozyme fitness (log ratio): -6.04
--
mutation-name: C13G C56A G63A
polymerase ribozyme fitness (log ratio): -3.78
--
mutation-name: C12A G42A C88U C114A G120A
polymerase ribozyme fitness (log ratio): -2.22
--
mutation-name: G61U A105C
polymerase ribozyme fitness (log ratio): -1.99
--
mutation-name: C99A C123G
polymerase ribozyme fitness (log ratio): -4.92
--
mutation-name: U59A U87A
polymerase ribozyme fitness (log ratio): -0.298
--
mutation-name: A121C U125G
polymerase ribozyme fitness (log ratio): 0.923
--
mutation-name: G42C C82U
polymerase ribozyme fitness (log ratio): -1.49
--
mutation-name: C13A G61A C88A G110A
polymerase ribozyme fitness (log ratio): -2.92
--
mutation-name: G61U A100C
polymerase ribozyme fitness (log ratio): -0.248
--
mutation-name: A29U C88U
polymerase ribozyme fitness (log ratio): -1.36
--
mutation-name: A41U G77U C88G A111U
polymerase ribozyme fitness (log ratio): -6.76
--
mutation-name: A74G C80U
polymerase ribozyme fitness (log ratio): -1.69
--
mutation-name: G71A C94G
polymerase ribozyme fitness (log ratio): -2.57
--
mutation-name: U14G C114U U132A
polymerase ribozyme fitness (log ratio): -7.19
--
mutation-name: A6G G69A C115A G120A
polymerase ribozyme fitness (log ratio): -1.22
--
mutation-name: C11G C40A C76G C86U C114U U125C
polymerase ribozyme fitness (log ratio): -5.11
--
mutation-name: C8U A50U C104U C123U
polymerase ribozyme fitness (log ratio): 1.14
--
mutation-name: U21A A26G C40G C49A
polymerase ribozyme fitness (log ratio): -3.04
--
mutation-name: A43U C70U
polymerase ribozyme fitness (log ratio): -2.1
--
mutation-name: G10A C73U U116C
polymerase ribozyme fitness (log ratio): -1.59
--
mutation-name: C20U U54A C73A C115G
polymerase ribozyme fitness (log ratio): -3.1
